Values from ChEMBL document CHEMBL4138105

# Tested on: Staphylococcus aureus
# Assay notes: Antibacterial activity against methicillin resistant Staphylococcus aureus CCARM 3089 after 24 hrs
# Assay type: functional
# Measurement parameters: CCARM 3089, 24 h
Answer each item with its documented MIC.

Example compounds with recorded MIC:
>  <Mol>
CC[C@H](C)[C@H](NC(=O)[C@H](CC(C)C)NC(=O)[C@@H](CCCCN)NC(=O)[C@@H](NC(=O)[C@@H](NC(=O)[C@H](CCCNC(=N)N)NC(=O)[C@@H](N)CCCCN)[C@@H](C)CC)C(C)C)C(=O)N[C@@H](CC(C)C)C(=O)N[C@@H](CCCCN)C(=O)N[C@@H](Cc1c[nH]c2ccccc12)C(=O)N[C@@H](CC(C)C)C(=O)N[C@@H](CCCNC(=N)N)C(N)=O

>  <MIC>
4 µM

$$$$
>  <Mol>
CC[C@H](C)[C@H](NC(=O)[C@H](CCCNC(=N)N)NC(=O)[C@@H](N)CCCCN)C(=O)N[C@H](C(=O)N[C@@H](CCCCN)C(=O)N[C@@H](CC(C)C)C(=O)N[C@H](CC(C)C)C(=O)N[C@@H](CC(C)C)C(=O)N[C@@H](CCCCN)C(=O)N[C@@H](Cc1c[nH]c2ccccc12)C(=O)N[C@@H](CC(C)C)C(=O)N[C@@H](CCCNC(=N)N)C(N)=O)C(C)C

>  <MIC>
4 µM

$$$$
>  <Mol>
CC[C@H](C)[C@H](NC(=O)[C@H](CCCNC(=N)N)NC(=O)[C@@H](N)CCCCN)C(=O)N[C@H](C(=O)N[C@@H](CCCCN)C(=O)N[C@H](CC(C)C)C(=O)N[C@H](C(=O)N[C@@H](CC(C)C)C(=O)N[C@@H](CCCCN)C(=O)N[C@@H](Cc1c[nH]c2ccccc12)C(=O)N[C@@H](CC(C)C)C(=O)N[C@@H](CCCNC(=N)N)C(N)=O)[C@@H](C)CC)C(C)C

>  <MIC>
4 µM

$$$$

Next, consider the following compound.
Can you look up MIC on Staphylococcus aureus for "CC[C@H](C)[C@H](NC(=O)[C@H](CC(C)C)NC(=O)[C@H](CCCCN)NC(=O)[C@@H](NC(=O)[C@@H](NC(=O)[C@H](CCCNC(=N)N)NC(=O)[C@@H](N)CCCCN)[C@@H](C)CC)C(C)C)C(=O)N[C@@H](CC(C)C)C(=O)N[C@@H](CCCCN)C(=O)N[C@@H](Cc1c[nH]c2ccccc12)C(=O)N[C@@H](CC(C)C)C(=O)N[C@@H](CCCNC(=N)N)C(N)=O" ?
4 µM

====

# System: Pseudomonas aeruginosa
# Assay notes: Synergistic antibacterial activity against multidrug-resistant Pseudomonas aeruginosa CCARM 2095 after 72 hrs in presence of chloramphenicol by chequerboard assay
# Format: functional
Readout: fractional inhibitory concentration index (FICI)
One number for each entry.

The following compounds have reported results that may help.
>  <Mol>
CC[C@H](C)[C@H](NC(=O)[C@H](CCCNC(=N)N)NC(=O)[C@@H](N)CCCCN)C(=O)N[C@H](C(=O)N[C@@H](CCCCN)C(=O)N[C@@H](CC(C)C)C(=O)N[C@H](CC(C)C)C(=O)N[C@@H](CC(C)C)C(=O)N[C@@H](CCCCN)C(=O)N[C@@H](Cc1c[nH]c2ccccc12)C(=O)N[C@@H](CC(C)C)C(=O)N[C@@H](CCCNC(=N)N)C(N)=O)C(C)C

>  <Quantitative result>
0.5

$$$$
>  <Mol>
CC[C@H](C)[C@H](NC(=O)[C@H](CC(C)C)NC(=O)[C@H](CCCCN)NC(=O)[C@@H](NC(=O)[C@@H](NC(=O)[C@H](CCCNC(=N)N)NC(=O)[C@@H](N)CCCCN)[C@@H](C)CC)C(C)C)C(=O)N[C@@H](CC(C)C)C(=O)N[C@@H](CCCCN)C(=O)N[C@@H](Cc1c[nH]c2ccccc12)C(=O)N[C@@H](CC(C)C)C(=O)N[C@@H](CCCNC(=N)N)C(N)=O

>  <Quantitative result>
0.25

$$$$
>  <Mol>
CC[C@H](C)[C@H](NC(=O)[C@H](CCCNC(=N)N)NC(=O)[C@@H](N)CCCCN)C(=O)N[C@H](C(=O)N[C@@H](CCCCN)C(=O)N[C@H](CC(C)C)C(=O)N[C@H](C(=O)N[C@@H](CC(C)C)C(=O)N[C@@H](CCCCN)C(=O)N[C@@H](Cc1c[nH]c2ccccc12)C(=O)N[C@@H](CC(C)C)C(=O)N[C@@H](CCCNC(=N)N)C(N)=O)[C@@H](C)CC)C(C)C

>  <Quantitative result>
0.375

$$$$

What fractional inhibitory concentration index (FICI) appears in the records for this compound with Pseudomonas aeruginosa? "CC[C@H](C)[C@H](NC(=O)[C@H](CC(C)C)NC(=O)[C@@H](CCCCN)NC(=O)[C@@H](NC(=O)[C@@H](NC(=O)[C@H](CCCNC(=N)N)NC(=O)[C@@H](N)CCCCN)[C@@H](C)CC)C(C)C)C(=O)N[C@@H](CC(C)C)C(=O)N[C@@H](CCCCN)C(=O)N[C@@H](Cc1c[nH]c2ccccc12)C(=O)N[C@@H](CC(C)C)C(=O)N[C@@H](CCCNC(=N)N)C(N)=O"
0.375
